Source listed as patent US20110118131A1.

target: T1, IL-1β (UniProt P01584 117-269); assay: Biacore, periplasmic extract
T1 construct: Antigen immobilised on the Biacore chip
measurement.type: binding result

>>> value_observed("XPA23 light chain R31E (Fab, V domains shown) VH: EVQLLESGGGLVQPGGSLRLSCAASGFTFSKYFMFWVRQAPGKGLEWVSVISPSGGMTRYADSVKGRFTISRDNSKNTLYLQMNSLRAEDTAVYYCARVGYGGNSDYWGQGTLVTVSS VL: DIQMTQSPSSVSASVGDRLTIICRASQDINEWLAWYQQTPGNAPKLLIHSATSLQSGVPSRFSGSGSGTDFTLTINSLQPEDFATYYCQQADSFPLTFGGGTKVEIK")
"no binding"
>>> value_observed("XPA23 light chain S50P (Fab, V domains shown) VH: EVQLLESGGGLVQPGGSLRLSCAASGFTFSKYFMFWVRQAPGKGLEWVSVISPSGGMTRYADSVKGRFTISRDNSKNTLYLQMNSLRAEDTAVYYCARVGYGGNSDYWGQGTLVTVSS VL: DIQMTQSPSSVSASVGDRLTIICRASQDINRWLAWYQQTPGNAPKLLIHPATSLQSGVPSRFSGSGSGTDFTLTINSLQPEDFATYYCQQADSFPLTFGGGTKVEIK")
"no binding"
>>> value_observed("XPA23 light chain F94N (Fab, V domains shown) VH: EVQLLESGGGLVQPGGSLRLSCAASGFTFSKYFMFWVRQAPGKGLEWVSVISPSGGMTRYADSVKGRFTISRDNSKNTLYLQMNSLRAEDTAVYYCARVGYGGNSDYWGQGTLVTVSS VL: DIQMTQSPSSVSASVGDRLTIICRASQDINRWLAWYQQTPGNAPKLLIHSATSLQSGVPSRFSGSGSGTDFTLTINSLQPEDFATYYCQQADSNPLTFGGGTKVEIK")
"no binding"
